- PROCEDURE_DETAILS: Quantitative High-Throughput drug screen in 47 multiple myeloma cell lines against the NCATS MIPE library collection: Karpas25_ECACC cell viability assay (AID 1918968; also: nearly all actives have a fitted effect of over 35% in size)
- EXPERIMENTAL_PARAMETERS: Karpas25 myeloma viability, CellTiter-Glo ATP, 48 h; series mostly up to 45.8 µM
Results filed as inconclusive are left out. Activity calls are given as the source filed them. Calls follow the shape of the dose curve; as a rule, active = well fitted cell-killing curve with a large enough effect; inconclusive = small, poorly fitted or top-dose-only effect, or effect the other way; inactive = no such curve, though single readings can be large or run the other way.
Could you please pick one outcome from this set? class 1 (active), class 0 (inactive)

O=C1c2c(O)cccc2[C@@H]([C@@H]2O[C@H](CO)[C@@H](O)[C@H](O)[C@H]2O)c2cc(CO)cc(O)c21 | class 0
COc1cc(C=CC(=O)CC(=O)C=Cc2ccc(O)c(OC)c2)ccc1O | class 1
CC(=O)OCC(=O)[C@@]12N=C(C)O[C@H]1C[C@H]1[C@@H]3CCC4=CC(=O)C=C[C@]4(C)[C@@H]3[C@@H](O)C[C@@]12C | class 1
C[N+](C)([O-])CCNc1ccc(NCC[N+](C)(C)[O-])c2c1C(=O)c1c(O)ccc(O)c1C2=O | class 0
CC1(C)[C@H](O[C@H]2O[C@H](C(=O)O)[C@@H](O)[C@H](O)[C@H]2O[C@@H]2O[C@H](C(=O)O)[C@@H](O)[C@H](O)[C@H]2O)CC[C@@]2(C)[C@H]1CC[C@]1(C)[C@H]2C(=O)C=C2[C@H]3C[C@@](C)(C(=O)O)CC[C@]3(C)CC[C@]21C | class 0

Per the assay record, what outcome was assigned to CN(C)CC[C@H](c1ccc(Cl)cc1)c1ccccn1 ?
class 0

Recorded test outcome, item Cn1cnc(=N)c2[nH]cnc21
class 1

---

- PROCEDURE_DETAILS: Quantitative High-Throughput drug screen in 47 multiple myeloma cell lines against the NCATS MIPE library collection: JJN3_DSMZ cell viability assay (AID 1918966; also: nearly all actives have a fitted effect of over 50% in size; also: potency is read from the fitted curve at half-maximal effect)
- EXPERIMENTAL_PARAMETERS: JJN3 myeloma cells viability, CellTiter-Glo ATP, 48 h; series mostly up to 45.8 µM
Results filed as inconclusive are left out. Activity calls are given as the source filed them. Calls come from the whole dose curve; as a rule, active = well fitted cell-killing curve with a large enough effect; inconclusive = small, poorly fitted or top-dose-only effect, or effect the other way; inactive = no such curve, though single readings can be large or run the other way.
ENDPOINT_LABEL: Potency

Consider the worked cases shown below.
C=CCNc1c(O)cc2c(O)c1C[C@@H](C)C[C@H](OC)[C@@H](O)[C@@H](C)C=C(C)[C@H](OC(N)=O)[C@@H](OC)C=CC=C(C)C(=O)N2 | 0.296 µM (active)
CC(=O)OCC(=O)[C@@]1(O)CC[C@H]2[C@@H]3CCC4=CC(=O)CC[C@]4(C)[C@@H]3C(=O)C[C@@]21C | inactive
COc1ccc([C@@H]2CNC(=O)C2)cc1OC1CCCC1 | inactive
COc1ccc(S(=O)(=O)Nc2cc(-c3c(O)ccc4ccccc34)c(O)c3ccccc23)cc1 | 8.33 µM (active)
COc1cc([C@@H]2c3cc4c(cc3[C@H](O)[C@H]3COC(=O)[C@@H]23)OCO4)cc(OC)c1OC | 0.526 µM (active)

Entry under test: COc1cccc2c1C(=O)c1c(O)c3c(c(O)c1C2=O)C[C@@](O)(C(=O)CO)C[C@@H]3O[C@H]1C[C@H](N)[C@H](OC2CCCCO2)[C@H](C)O1 (stereo not given in full) . Its Potency was 1.87 µM (active)

Please fill in: Potency reported for CCN(CC)Cc1ccc2cc(COC(=O)Nc3ccc(C(=O)NO)cc3)ccc2c1 = 0.833 µM (active)

// sample COc1cc(OC)c(C=CS(=O)(=O)Cc2ccc(OC)c(NCC(=O)O)c2)c(OC)c1 , its Potency was 1.05 µM (active)

Consider C=CC(=O)Nc1cccc(Nc2nc(NC3CCC(N(C)C)CC3)nc3c2ncn3C(C)C)c1 (stereo not given) . Its measured Potency is 0.0105 µM (active)

Query Oc1cc(-c2nc(-c3ccccc3)[nH]c2-c2ccncc2)ccc1Cl yields Potency of 18.7 µM (active)

What the record says about CCOc1cc2ncc(C#N)c(Nc3ccc(OCc4ccccn4)c(Cl)c3)c2cc1NC(=O)C=CCN(C)C : Potency is 5.9 µM (active)

Value of Potency reported for the molecule CCNC(=O)Nc1ccc(-c2nc3c(c(N4CCOC[C@H]4C)n2)CCN(C2COC2)C3)cc1 is 0.833 µM (active)

---

- PROCEDURE_DETAILS: qHTS of pediatric cancer cell lines to identify multiple opportunities for drug repurposing: Primary screen for SK-N-SH cells (AID 1347098); also: nearly all actives have a fitted effect of over 65% in size
- EXPERIMENTAL_PARAMETERS: SK-N-SH viability, CellTiter-Glo luminescence, 48 h; series mostly up to 57 µM
Results filed as inconclusive are left out. Active and inactive are the calls of the source. Calls come from the whole dose curve; as a rule, active = well fitted cell-killing curve with a large enough effect; inconclusive = small, poorly fitted or top-dose-only effect; inactive = no such curve, though single readings can be large or run the other way.
The reply should be one of these categories: active, inactive

O=C1c2c(O)cccc2[C@@H]([C@@H]2O[C@H](CO)[C@@H](O)[C@H](O)[C@H]2O)c2cc(CO)cc(O)c21 | inactive
COc1ccc(CCC(=O)c2c(O)cc(O[C@@H]3O[C@H](CO)[C@@H](O)[C@H](O)[C@@H]3O[C@@H]3O[C@@H](C)[C@H](O)[C@@H](O)[C@@H]3O)cc2O)cc1O | active
COc1cccc2c1C(=O)c1c(O)c3c(c(O)c1C2=O)C[C@@](O)(C(C)=O)C[C@H]3O[C@H]1C[C@H](N)[C@H](O)[C@H](C)O1 | active
O=C1NC(=O)[C@@H](c2cn3c4c(cccc24)CCC3)[C@H]1c1c[nH]c2ccccc12 | inactive
CCOC(=O)[C@@H](N)Cc1ccc(-c2cc(O[C@H](c3ccc(Cl)cc3-n3ccc(C)n3)C(F)(F)F)nc(N)n2)cc1 | inactive
COc1cc(C)c(C=CC(C)=CC=CC(C)=CC(=O)O)c(C)c1C | inactive
Cn1cc(CNCC2CCN(c3ncc(C(=O)NO)cn3)CC2)c2ccccc21 | active
CC(C)C[C@H](NC(=O)[C@@H](NC(=O)c1cccc(-c2ccccc2)n1)[C@@H](C)O)B(O)O | active
CCN(CC)CCCCNc1ncc2c(n1)N(C)C(=O)N(c1c(Cl)c(OC)cc(OC)c1Cl)C2 | active
O=C1CSC(=O)N1C(CCc1ccncc1)COc1ccc(-c2cccc([N+](=O)[O-])c2)cc1 (centres undefined) | active

Fill in: this test's call for Cc1cn([C@@H]2O[C@H](CO)[C@@H](O)[C@H]2F)c(=O)[nH]c1=O is ___
inactive

In this assay, the call recorded for COC1=C(OC)C(=O)C(CC=C(C)CCC=C(C)CCC=C(C)CCC=C(C)CCC=C(C)CCC=C(C)CCC=C(C)CCC=C(C)CCC=C(C)CCC=C(C)C)=C(C)C1=O was what?
inactive

In this assay, the call recorded for OC[C@H]1OC(O)C[C@@H](O)[C@H]1O (some centres undefined) was what?
inactive

Assay result, entry C[C@@H](Cc1cc2c(c(C(N)=O)c1)N(CCCO)CC2)NCCOc1ccccc1OCC(F)(F)F — outcome?
inactive

What did this assay record as the result for CC1(C)CC(O)CC(C)(C)N1[O] ?
inactive

Which outcome was assigned to CC(C)C[C@H](NC(=O)CNC(=O)c1cc(Cl)ccc1Cl)B1OC(=O)CC(CC(=O)O)(C(=O)O)O1 (some centres undefined) in this test?
active

Give the logged outcome of this assay for the following compound: C#C[C@]1(O)CC[C@@H]2[C@@H]3CCc4cc(O)ccc4[C@H]3CC[C@@]21C
active

---

- PROCEDURE_DETAILS: Quantitative High-Throughput drug screen in 47 multiple myeloma cell lines against the NCATS MIPE library collection: JIM3_ECACC cell viability assay (AID 1918963; also: nearly all actives have a fitted effect of over 35% in size)
- EXPERIMENTAL_PARAMETERS: JIM3 myeloma viability, CellTiter-Glo ATP, 48 h; series mostly up to 45.8 µM
Inconclusive results are not listed. Calls of active or inactive are those of the source. Calls follow the shape of the dose curve; as a rule, active = well fitted cell-killing curve with a large enough effect; inconclusive = small, poorly fitted or top-dose-only effect; inactive = no such curve, though single readings can be large or run the other way.
API: response.call in active, inactive

CCS(=O)(=O)Nc1ccc2[nH]c(O)c(C(=Nc3ccc(CN4CCCCC4)cc3)c3ccccc3)c2c1 | active

Look up the recorded call for CC(=O)OCC(=O)[C@@]1(O)CC[C@H]2[C@@H]3CCC4=CC(=O)CC[C@]4(C)[C@@H]3C(=O)C[C@@]21C in this test.
inactive

---

- PROCEDURE_DETAILS: qHTS of pediatric cancer cell lines to identify multiple opportunities for drug repurposing: Primary screen for RD cells (AID 1347104); also: nearly all actives have a fitted effect of over 55% in size
- EXPERIMENTAL_PARAMETERS: RD rhabdomyosarcoma viability, CellTiter-Glo luminescence, 48 h; series mostly up to 46 µM
Results filed as inconclusive are left out. Activity calls are given as the source filed them. The call rests on the fitted dose curve; in most records, active means well fitted cell-killing curve with a large enough effect; inconclusive means small, poorly fitted or top-dose-only effect; inactive means flat fitted curve, though single readings scatter.
Valid outcomes are listed here; reply with one: Y (active), N (inactive)

Consider the worked cases shown below.
c1ccc2c(Oc3nc(Nc4ccc(N5CCOCC5)cc4)c4ncn(C5CCCCC5)c4n3)cccc2c1 | N
C=CC(=O)Nc1cc(NC(=O)c2ccc(C)c(NC(=O)c3ccno3)c2)cc(C(F)(F)F)c1 | Y
NC(=O)c1ncn([C@@H]2O[C@H](CO)[C@@H](O)[C@@H]2O)c1O | N
CO[C@@H]1[C@@H](O)[C@H](O)[C@@H](n2c3c(Cl)cccc3c3c4c(c5c6cccc(Cl)c6[nH]c5c32)C(=O)NC4=O)O[C@@H]1CO | Y
Cc1cnc(Nc2ccc(N3CCN(C)CC3)cc2)nc1Nc1cccc(S(=O)(=O)NC(C)(C)C)c1 | Y
C=C(C)[C@@H]1CC[C@]2(C(=O)O)CC[C@]3(C)[C@H](CC[C@@H]4[C@@]5(C)CC[C@H](O)C(C)(C)[C@@H]5CC[C@]43C)[C@@H]12 | N
N#Cc1cc(NC(=O)Nc2nnc(-c3ccncc3)s2)ccc1-c1cn[nH]c1 | N
CN1[C@H]2CC(OC(=O)[C@@H](CO)c3ccccc3)C[C@H]1[C@H]1O[C@H]12 (stereo not given in full) | N
Cc1cnc(Nc2ccc(CN3CCOCC3)cc2)nc1Nc1cccc(S(=O)(=O)NC(C)(C)C)c1 | Y
NC(=O)c1ncn([C@@H]2O[C@H](CO)[C@@H](O)[C@@H]2O)c1N | N

Hi, do you know how CN[C@H](CC(C)C)C(=O)N[C@H]1C(=O)N[C@@H](CC(N)=O)C(=O)N[C@@H]2C(=O)N[C@H]3C(=O)N[C@H](C(=O)N[C@H](C(=O)O)c4cc(O)cc(O)c4-c4cc3ccc4O)[C@H](O)c3ccc(c(Cl)c3)Oc3cc2cc(c3O[C@@H]2O[C@H](CO)[C@@H](O)[C@H](O)[C@@H]2O[C@H]2C[C@](C)(N)[C@H](O)[C@H](C)O2)Oc2ccc(cc2Cl)[C@H]1O came out in this test?
N

Look up the recorded call for COc1ccc([C@@H]2CNC(=O)C2)cc1OC1CCCC1 in this test.
Y

# outcome recorded in this test, key = O=C1NC(=O)[C@@H](c2cn3c4c(cccc24)CCC3)[C@H]1c1c[nH]c2ccccc12
Y

So what was the verdict on CCCNC(=O)[C@H]1O[C@H]1C(=O)N[C@H](C(=O)N1CCC[C@@H]1C(=O)OC)C(C)CC (stereo not given in full) in this test?
Y

So what was the verdict on C#C[C@]1(O)CC[C@@H]2[C@@H]3CCc4cc(O)ccc4[C@H]3CC[C@@]21C in this test?
Y
